Cited source: patent US5643873A

Target: E-selectin (Homo sapiens, UniProt P16581)
Sequence (P16581 22-554): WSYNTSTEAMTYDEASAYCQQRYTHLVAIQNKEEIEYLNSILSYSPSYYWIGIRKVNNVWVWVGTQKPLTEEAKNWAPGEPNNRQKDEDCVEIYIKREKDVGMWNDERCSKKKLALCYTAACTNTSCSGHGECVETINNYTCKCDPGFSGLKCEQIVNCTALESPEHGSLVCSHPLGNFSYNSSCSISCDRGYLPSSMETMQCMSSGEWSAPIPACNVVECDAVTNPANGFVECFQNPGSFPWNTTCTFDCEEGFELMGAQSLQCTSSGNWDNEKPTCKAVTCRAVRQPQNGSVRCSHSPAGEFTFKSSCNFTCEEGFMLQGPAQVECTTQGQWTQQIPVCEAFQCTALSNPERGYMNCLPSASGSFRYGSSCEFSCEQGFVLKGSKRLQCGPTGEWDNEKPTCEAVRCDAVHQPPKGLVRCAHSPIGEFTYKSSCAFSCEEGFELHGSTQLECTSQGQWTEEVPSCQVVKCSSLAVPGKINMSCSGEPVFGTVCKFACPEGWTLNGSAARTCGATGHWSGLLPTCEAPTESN
Assay: IC50-standard competitive binding assay (radiolabeled standard peptide on immobilized E-selectin)
Design: truncated form comprising the complete extracellular domain (amino acids 1 through 554); made in house; a baculovirus soluble form is also mentioned as an option
Details: inhibits 50% of binding of radiolabeled standard […] to E-selectin
pIC50: −log10 of the molar value. Ends that are not written are not given here.

[
  {
    "SUBSTANCE": "HITWDQLWRIMT",
    "pIC50": 7.55
  },
  {
    "SUBSTANCE": "DITWDQLWDLMK-NH2",
    "pIC50": 7.66
  },
  {
    "SUBSTANCE": "DYSWHDLWEMMS",
    "pIC50": 7.80
  },
  {
    "SUBSTANCE": "RNMSWLELWEHMK",
    "pIC50": 7.46
  },
  {
    "SUBSTANCE": "QITWAQLWNMMK",
    "pIC50": 7.92
  }
]
